Target or system: human folate receptor alpha (hFOLR1) on cells (human, UniProt P15328 25-234)
Sequence (P15328 25-234 limits assumed): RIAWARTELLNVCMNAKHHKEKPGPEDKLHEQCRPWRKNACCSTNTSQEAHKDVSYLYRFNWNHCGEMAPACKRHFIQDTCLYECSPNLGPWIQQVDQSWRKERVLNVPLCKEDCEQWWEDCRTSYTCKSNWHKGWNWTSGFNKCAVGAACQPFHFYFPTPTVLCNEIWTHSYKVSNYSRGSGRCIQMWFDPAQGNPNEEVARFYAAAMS
Experimental protocol: cell-based or functional assay
Measured parameter: Igrov 2° Antibody Cell Killing, Nb-SC239, EC50 (nM)

1) SRP2060-A06 (antibody, V domains shown) VH: EVQLLESGGGLVQPGGSLRLSCAFSGFSLSTFGMGVGWVRQAPGKGLEWVGHIWWDDDKYYYPALKGRFTISKDNSKNTVYLQMNSLRAEDTAVYYCGRNHFPHYYGSSHWYFDVWGQGTTVTVSS VL: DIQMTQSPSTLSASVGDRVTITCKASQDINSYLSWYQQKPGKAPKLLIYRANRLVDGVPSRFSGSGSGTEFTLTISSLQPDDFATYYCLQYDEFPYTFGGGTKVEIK: 0.013
